# SYSTEM TESTED: human 5-HT1A receptor (h5-HT1AR) (Homo sapiens)
# Construct: receptor cDNA (cDNA Resource Center) transiently expressed in HEK293T; with Rluc8-Galphai3, Gbeta3, GFP2-Ggamma9 for function
# Sequence (P08908 whole entry): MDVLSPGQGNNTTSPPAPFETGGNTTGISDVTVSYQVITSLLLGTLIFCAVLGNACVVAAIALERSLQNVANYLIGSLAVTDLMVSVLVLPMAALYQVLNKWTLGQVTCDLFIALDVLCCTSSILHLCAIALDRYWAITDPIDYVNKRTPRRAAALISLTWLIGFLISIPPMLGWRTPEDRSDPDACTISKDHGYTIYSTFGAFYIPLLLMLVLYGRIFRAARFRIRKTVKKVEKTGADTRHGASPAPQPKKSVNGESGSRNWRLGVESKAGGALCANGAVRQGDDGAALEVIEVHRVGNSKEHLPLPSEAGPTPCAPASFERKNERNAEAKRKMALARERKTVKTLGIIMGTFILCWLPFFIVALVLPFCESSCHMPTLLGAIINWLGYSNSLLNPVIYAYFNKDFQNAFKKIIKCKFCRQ
# ASSAY EXPLANATION: TRUPATH BRET2 G protein activation assay, HEK293T
# EXPERIMENTAL CONTEXT: read-out: DPT
RECORDED ENDPOINT: pEC50
Friendly reminder that pEC50 comes from taking -log10 of the concentration in mol/L.

Lab note: CCCN(CCC)CCc1c[nH]c2ccccc12 gave pEC50 of 5.61

====

RECORDED ENDPOINT: Ki
Please don't drop the unit; write it after the number.

Case CCCN(CCC)CCc1c[nH]c2ccccc12 , human 5-HT2A receptor (h5-HT2AR) (Homo sapiens, UniProt P28223), Ki recorded as 3 nM

====

# SYSTEM TESTED: human 5-HT1B receptor (h5-HT1BR) (Homo sapiens, UniProt P28222)
# Construct: receptor cDNA (cDNA Resource Center) transiently expressed in HEK293T; with Rluc8-Galphai3, Gbeta3, GFP2-Ggamma9 for function
# Sequence (P28222 whole entry): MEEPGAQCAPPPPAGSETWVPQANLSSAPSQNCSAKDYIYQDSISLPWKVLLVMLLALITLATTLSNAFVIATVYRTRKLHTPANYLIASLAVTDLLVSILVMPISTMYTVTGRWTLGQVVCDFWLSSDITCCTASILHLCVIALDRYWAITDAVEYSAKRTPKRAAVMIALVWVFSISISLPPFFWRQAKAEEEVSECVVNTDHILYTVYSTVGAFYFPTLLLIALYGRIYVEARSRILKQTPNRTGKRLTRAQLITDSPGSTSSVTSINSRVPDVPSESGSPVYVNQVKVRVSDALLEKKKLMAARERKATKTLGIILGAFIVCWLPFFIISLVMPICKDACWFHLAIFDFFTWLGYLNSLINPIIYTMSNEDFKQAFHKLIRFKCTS
# ASSAY EXPLANATION: TRUPATH BRET2 G protein activation assay, HEK293T
# EXPERIMENTAL CONTEXT: read-out: DPT
RECORDED ENDPOINT: pEC50
The read-out pEC50 is expressed as -log10 of concentration in moles per litre.

Recorded pEC50 (molecule CCCN(CCC)CCc1c[nH]c2ccccc12 ): 5.92

====

RECORDED ENDPOINT: Ki (nM)
Express it in nM; write the number only.

GET /values?item= CCCN(CCC)CCc1c[nH]c2ccccc12 [DPT] &system= human 5-HT1A receptor (h5-HT1AR) (Homo sapiens, UniProt P08908) returns Ki: 1640
